Every entry's value here was drawn from patent US7238711.

# TARGET DESC: CCR5 (human), P51681
# Sequence (P51681 whole entry): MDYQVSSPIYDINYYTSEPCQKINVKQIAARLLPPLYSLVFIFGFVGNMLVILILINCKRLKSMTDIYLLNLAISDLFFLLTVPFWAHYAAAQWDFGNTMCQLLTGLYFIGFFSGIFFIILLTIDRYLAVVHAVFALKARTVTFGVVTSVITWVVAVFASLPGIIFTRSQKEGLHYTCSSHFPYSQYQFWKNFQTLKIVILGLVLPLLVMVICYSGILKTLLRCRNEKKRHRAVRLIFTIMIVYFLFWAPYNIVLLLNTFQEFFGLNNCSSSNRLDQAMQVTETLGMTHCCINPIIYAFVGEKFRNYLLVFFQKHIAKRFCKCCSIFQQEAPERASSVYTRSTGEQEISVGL
# ASSAY DETAILS: 12-point Scatchard, 0.03 nM 125I-RANTES with cold RANTES, 4° C., 2 hours
# TEST PARAMETERS: remark: other sources report otherwise
pKd: −log10 of the molar value.
OBSERVATION TYPE: pKd

BINDER: RANTES, P13501 24-91 (ligand, UniProt P13501 24-91, looked up) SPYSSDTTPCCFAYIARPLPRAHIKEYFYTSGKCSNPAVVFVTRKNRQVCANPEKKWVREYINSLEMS
OBSERVATION TYPE: pKd
OBSERVED MEASUREMENT: 9.00
